From: patent US10407446B2

# IC50 values compiled below
# EXPERIMENTAL_TARGET: DNAPK (Homo sapiens (Human))
# EXPERIMENT_NOTES: DNAPK cellular potency assay (DNA-PK cell), pS2056-DNAPK ELISA in irradiated A549 cells
# Type: cell-based
# CONDITION_DESCRIPTION: A549 cell line, 8 Gy radiation, mean of at least 2 experiments, read-out: DNA-PK cell pIC50 (converted)
READOUT_KIND: IC50 (nM)

INSERT INTO measurements (smiles, experimental_target, readout_kind, experimental_value) VALUES
  ('Cc1cc2ncnn2cc1Nc1ncc2c(n1)n([C@H]1CCCOC1)c(=O)n2C', 'DNAPK (Homo sapiens (Human))', 'IC50', 50.1),
  ('CO[C@H]1CC[C@@H](n2c(=O)n(C)c3cnc(Nc4cn5ncnc5cc4C)nc32)CC1', 'DNAPK (Homo sapiens (Human))', 'IC50', 126),
  ('Cc1cc2ncnn2cc1Nc1ncc2c(n1)n([C@H]1CCOC1)c(=O)n2C', 'DNAPK (Homo sapiens (Human))', 'IC50', 158),
  ('Cc1nc2cc(C)c(Nc3ncc4c(n3)n(C3CCOCC3)c(=O)n4C)cn2n1', 'DNAPK (Homo sapiens (Human))', 'IC50', 158),
  ('Cc1cc2ncnn2cc1Nc1ncc2c(n1)n([C@@H]1CCCOC1)c(=O)n2C', 'DNAPK (Homo sapiens (Human))', 'IC50', 63.1),
  ('CO[C@H]1CC[C@H](n2c(=O)n(C)c3cnc(Nc4cn5ncnc5cc4C)nc32)CC1', 'DNAPK (Homo sapiens (Human))', 'IC50', 39.8),
  ('Cc1cc2ncnn2cc1Nc1ncc2c(n1)n([C@]1(C)CC[C@H](O)CC1)c(=O)n2C', 'DNAPK (Homo sapiens (Human))', 'IC50', 39.8);

====

# EXPERIMENTAL_TARGET: DNAPK (Homo sapiens (Human), UniProt P78527)
# Assay type: biochemical
# CONDITION_DESCRIPTION: mean of at least 2 experiments; 18 μM ATP; read-out: DNA-PK enz pIC50 (converted)
READOUT_KIND: IC50 (nM)

INSERT INTO assay_data (compound, experimental_target, readout_kind, experimental_value) VALUES
  ('CO[C@H]1CC[C@@H](n2c(=O)n(C)c3cnc(Nc4cn5ncnc5cc4C)nc32)CC1 [Example 5]', 'DNAPK (Homo sapiens (Human), UniProt P78527)', 'IC50', 1),
  ('Cc1cc2ncnn2cc1Nc1ncc2c(n1)n([C@H]1CCCOC1)c(=O)n2C [Example 7]', 'DNAPK (Homo sapiens (Human), UniProt P78527)', 'IC50', 0.158),
  ('Cc1nc2cc(C)c(Nc3ncc4c(n3)n(C3CCOCC3)c(=O)n4C)cn2n1 [Example 4]', 'DNAPK (Homo sapiens (Human), UniProt P78527)', 'IC50', 1.26),
  ('Cc1cc2ncnn2cc1Nc1ncc2c(n1)n([C@H]1CCOC1)c(=O)n2C [Example 11]', 'DNAPK (Homo sapiens (Human), UniProt P78527)', 'IC50', 0.501),
  ('CO[C@H]1CC[C@H](n2c(=O)n(C)c3cnc(Nc4cn5ncnc5cc4C)nc32)CC1 [Example 6]', 'DNAPK (Homo sapiens (Human), UniProt P78527)', 'IC50', 0.251),
  ('Cc1cc2ncnn2cc1Nc1ncc2c(n1)n([C@@H]1CCCOC1)c(=O)n2C [Example 8]', 'DNAPK (Homo sapiens (Human), UniProt P78527)', 'IC50', 0.398),
  ('Cc1cc2ncnn2cc1Nc1ncc2c(n1)n([C@]1(C)CC[C@H](O)CC1)c(=O)n2C [Example 12]', 'DNAPK (Homo sapiens (Human), UniProt P78527)', 'IC50', 0.2);
